- Tested on: Escherichia coli TOP10
- test.protocol: shrunken log2 fold change of peptide-encoding DNA abundance (4.5 h post-induction vs induction); higher = less antimicrobial activity (less host growth inhibition)
- condition.summary: time post-induction: 4.5 h; library: site-saturation at positions 5, 18, 19, 20
Please note: met applies when shrunken log2 fold change is -0.02 or greater, and not met applies otherwise.

INSERT INTO measurements (input_sequence, target_of_assay, class) VALUES
  ('RRIRIRPPRLPRPRPRPLLNPRP', 'Escherichia coli TOP10', 'not met'),
  ('RRIRFRPPRLPRPRPRPADNPRP', 'Escherichia coli TOP10', 'met'),
  ('RRIRVRPPRLPRPRPRPWEEPRP', 'Escherichia coli TOP10', 'not met'),
  ('RRIRSRPPRLPRPRPRPAFEPRP', 'Escherichia coli TOP10', 'met');

Could you now consider this next sequence?
-- ask Decide: is the reported value of shrunken log2 fold change for RRIRVRPPRLPRPRPRPIAKPRP equal to or greater than -0.02?
-- reply met

###

- System: Escherichia coli TOP10
- test.protocol: shrunken log2 fold change of peptide-encoding DNA abundance (4.5 h post-induction vs induction); higher = less antimicrobial activity (less host growth inhibition)
- condition.summary: time post-induction: 4.5 h; library: site-saturation at positions 5, 18, 19, 20
reported.property: shrunken log2 fold change
Would you mind answering with just the numeric figure?

These recorded examples may help you get a feel for the data.
INSERT INTO assay_data (input_sequence, target_of_assay, measured_value) VALUES
  ('RRIRQRPPRLPRPRPRPVETPRP', 'Escherichia coli TOP10', -0.00674),
  ('RRIRGRPPRLPRPRPRPLTIPRP', 'Escherichia coli TOP10', -0.155);

Measured shrunken log2 fold change, RRIRPRPPRLPRPRPRPYGDPRP : -0.156

Measured shrunken log2 fold change, RRIRPRPPRLPRPRPRPRRQPRP : 0.673

Measured shrunken log2 fold change, RRIRFRPPRLPRPRPRPLVSPRP : -0.425

###

- System: Escherichia coli TOP10
- test.protocol: shrunken log2 fold change of peptide-encoding DNA abundance (4.5 h post-induction vs induction); higher = less antimicrobial activity (less host growth inhibition)
- condition.summary: time post-induction: 4.5 h; library: site-saturation at positions 5, 18, 19, 20
reported.property: shrunken log2 fold change
Would you mind answering with just the numeric figure?

Measured shrunken log2 fold change, RRIRNRPPRLPRPRPRPKDMPRP : -0.0164

Measured shrunken log2 fold change, RRIRKRPPRLPRPRPRPTVFPRP : 0.0385

Measured shrunken log2 fold change, RRIRYRPPRLPRPRPRPVTQPRP : 3.05

Measured shrunken log2 fold change, RRIRFRPPRLPRPRPRPVTHPRP : -0.303

Measured shrunken log2 fold change, RRIRDRPPRLPRPRPRPTDDPRP : -0.0281

Measured shrunken log2 fold change, RRIRWRPPRLPRPRPRPDSMPRP : -0.0126

Measured shrunken log2 fold change, RRIRQRPPRLPRPRPRPSFFPRP : -0.287

Measured shrunken log2 fold change, RRIRERPPRLPRPRPRPAVGPRP : 0.209

###

- Tested on: Escherichia coli TOP10
- test.protocol: shrunken log2 fold change of peptide-encoding DNA abundance (4.5 h post-induction vs induction); higher = less antimicrobial activity (less host growth inhibition)
- condition.summary: time post-induction: 4.5 h; library: site-saturation at positions 5, 18, 19, 20
Please note: satisfied applies when shrunken log2 fold change is -0.07 or greater, and not satisfied applies otherwise.

Examples from the recorded data:
INSERT INTO results (input_sequence, class) VALUES
  ('RRIRLRPPRLPRPRPRPHVIPRP', 'satisfied'),
  ('RRIRLRPPRLPRPRPRPFIEPRP', 'not satisfied'),
  ('RRIRHRPPRLPRPRPRPNMQPRP', 'satisfied');

-- ask Decide: is the reported value of shrunken log2 fold change for RRIRDRPPRLPRPRPRPFRGPRP equal to or greater than -0.07?
-- reply satisfied

-- ask Decide: is the reported value of shrunken log2 fold change for RRIRPRPPRLPRPRPRPHWTPRP equal to or greater than -0.07?
-- reply not satisfied

-- ask Decide: is the reported value of shrunken log2 fold change for RRIRRRPPRLPRPRPRPHTWPRP equal to or greater than -0.07?
-- reply satisfied

-- ask Decide: is the reported value of shrunken log2 fold change for RRIRFRPPRLPRPRPRPDVTPRP equal to or greater than -0.07?
-- reply not satisfied

-- ask Decide: is the reported value of shrunken log2 fold change for RRIRNRPPRLPRPRPRPGWAPRP equal to or greater than -0.07?
-- reply satisfied

###

- System: Escherichia coli TOP10
- test.protocol: shrunken log2 fold change of peptide-encoding DNA abundance (4.5 h post-induction vs induction); higher = less antimicrobial activity (less host growth inhibition)
- condition.summary: time post-induction: 4.5 h; library: site-saturation at positions 5, 18, 19, 20
reported.property: shrunken log2 fold change
Would you mind answering with just the numeric figure?

INSERT INTO results (input_sequence, reported_property, measured_value) VALUES
  ('RRIRMRPPRLPRPRPRPDNEPRP', 'shrunken log2 fold change', 0.379);

Measured shrunken log2 fold change, RRIRFRPPRLPRPRPRPKLFPRP : -0.0554

Measured shrunken log2 fold change, RRIRPRPPRLPRPRPRPKMQPRP : 0.132

Measured shrunken log2 fold change, RRIRWRPPRLPRPRPRPMHEPRP : -0.0461

###

- Test system: Escherichia coli TOP10
- test.protocol: shrunken log2 fold change of peptide-encoding DNA abundance (4.5 h post-induction vs induction); higher = less antimicrobial activity (less host growth inhibition)
- condition.summary: time post-induction: 4.5 h; library: site-saturation at positions 5, 18, 19, 20
Please note: satisfied applies when shrunken log2 fold change is 0.03 or greater, and not satisfied applies otherwise.

INSERT INTO assay_data (input_sequence, class) VALUES
  ('RRIRWRPPRLPRPRPRPKFHPRP', 'not satisfied'),
  ('RRIRHRPPRLPRPRPRPEFGPRP', 'satisfied'),
  ('RRIRLRPPRLPRPRPRPQGEPRP', 'satisfied'),
  ('RRIRRRPPRLPRPRPRPDPAPRP', 'satisfied');

-- ask Decide: is the reported value of shrunken log2 fold change for RRIRNRPPRLPRPRPRPKGWPRP equal to or greater than 0.03?
-- reply satisfied

-- ask Decide: is the reported value of shrunken log2 fold change for RRIRRRPPRLPRPRPRPFQEPRP equal to or greater than 0.03?
-- reply not satisfied

-- ask Decide: is the reported value of shrunken log2 fold change for RRIRKRPPRLPRPRPRPGYPPRP equal to or greater than 0.03?
-- reply satisfied

-- ask Decide: is the reported value of shrunken log2 fold change for RRIRWRPPRLPRPRPRPSESPRP equal to or greater than 0.03?
-- reply satisfied

-- ask Decide: is the reported value of shrunken log2 fold change for RRIRARPPRLPRPRPRPELYPRP equal to or greater than 0.03?
-- reply satisfied

-- ask Decide: is the reported value of shrunken log2 fold change for RRIRGRPPRLPRPRPRPSMEPRP equal to or greater than 0.03?
-- reply satisfied

-- ask Decide: is the reported value of shrunken log2 fold change for RRIRRRPPRLPRPRPRPLHQPRP equal to or greater than 0.03?
-- reply satisfied

###

Listed here are sequences together with their documented shrunken log2 fold change.
- Tested on: Escherichia coli TOP10
- test.protocol: shrunken log2 fold change of peptide-encoding DNA abundance (4.5 h post-induction vs induction); higher = less antimicrobial activity (less host growth inhibition)
- condition.summary: time post-induction: 4.5 h; library: site-saturation at positions 5, 18, 19, 20
Would you mind answering with just the numeric figure?

INSERT INTO results (input_sequence, measured_value) VALUES
  ('RRIRHRPPRLPRPRPRPVLRPRP', -0.0204),
  ('RRIRERPPRLPRPRPRPAREPRP', 0.0588),
  ('RRIRQRPPRLPRPRPRPIGTPRP', 0.0722),
  ('RRIRDRPPRLPRPRPRPGWLPRP', 0.127),
  ('RRIRQRPPRLPRPRPRPKSRPRP', 0.0336);

Measured shrunken log2 fold change, RRIRNRPPRLPRPRPRPVNRPRP : 0.00717

Measured shrunken log2 fold change, RRIRNRPPRLPRPRPRPDCVPRP : -0.106

###

- Test system: Escherichia coli TOP10;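 note: peptides expressed intracellularly from a pBAD plasmid library in pooled LB shake-flask culture, induced with 0.3% L-arabinose, DNA abundance read by NGS, three biological replicates, DESeq2 with apeglm shrinkage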
- test.protocol: shrunken log2 fold change of peptide-encoding DNA abundance (4.5 h post-induction vs induction); higher = less antimicrobial activity (less host growth inhibition)
- condition.summary: time post-induction: 4.5 h; library: site-saturation at positions 5, 18, 19, 20
reported.property: shrunken log2 fold change

These recorded examples may help you get a feel for the data.
INSERT INTO measurements (input_sequence, measured_value) VALUES
  ('RRIRERPPRLPRPRPRPPIEPRP', -0.227),
  ('RRIRVRPPRLPRPRPRPLCNPRP', -0.139),
  ('RRIRQRPPRLPRPRPRPYDFPRP', -0.543),
  ('RRIRQRPPRLPRPRPRPRSFPRP', -0.0281),
  ('RRIRSRPPRLPRPRPRPAFGPRP', 0.291);

Measured shrunken log2 fold change, RRIRLRPPRLPRPRPRPSDRPRP : -0.147

Measured shrunken log2 fold change, RRIRWRPPRLPRPRPRPNPTPRP : -0.0571

Measured shrunken log2 fold change, RRIRQRPPRLPRPRPRPPYAPRP : -0.189

Measured shrunken log2 fold change, RRIRIRPPRLPRPRPRPGCSPRP : -0.391

Measured shrunken log2 fold change, RRIRHRPPRLPRPRPRPMKDPRP : -0.778

Measured shrunken log2 fold change, RRIRTRPPRLPRPRPRPIDLPRP : -1.07

Measured shrunken log2 fold change, RRIRCRPPRLPRPRPRPNWHPRP : -0.271

Measured shrunken log2 fold change, RRIRGRPPRLPRPRPRPQQFPRP : 0.239

Measured shrunken log2 fold change, RRIRCRPPRLPRPRPRPQDKPRP : -0.579

Where do these numbers come from? They come from the supplement of paper PMC9112550.
